Assay: Turbidity, derived count rate of scattered light
Type: physicochemical
Details: category 1/0, no key printed
Description: 4 µL of 1 mg/mL peptide fibrils solution is added to a 20 µL, 50 µM ThT–solution in PBS. The mixture is incubated for 15 min at RT to allow binding of ThT dye with β–sheet rich structures. […] Fluorescence spectra were recorded on an Infinite® M1000 PRO microplate reader (Tecan) at λem = 488 nm upon excitation at λex = 440 nm with 10 nm bandwidths and multiple reads per well (3×3). […] Furthermore, fluorescence microscopy was conducted by staining 1 µL preformed fibrils (1 mg/mL) with 9 µL ThT (50 µM). […]
attribute-measured: Zeta Count Rate Category
No unit in the answer, only the number.

# substance, Zeta Count Rate Category
records = [
    ("QCKIKIQINM [CK2]", 1),
    ("QCKFKFQFNM [CK8]", 1),
    ("KAKAQANMWQ [JG3]", 0),
    ("CEIEIQINMWQ [TM143]", 1),
    ("CKAKAQA [TM155]", 1),
    ("QCKFKFQFNMWQ [CK7]", 1),
    ("CQFQFQF [QBL4]", 1),
    ("CKAKAQANMWQ [BL8]", 0),
]

// sample KFKFQFNM [BL6a] , its Zeta Count Rate Category was 1

CKFKFQFNM [BL3] yielded Zeta Count Rate Category of 1

Measured Zeta Count Rate Category of CEIEIQINM [TM144] : 0

Form: substance = CSISIQI [TM141] ; Zeta Count Rate Category = 1

# substance CSISIQINM [TM145] ; its Zeta Count Rate Category = 1

// recorded Zeta Count Rate Category for CEFEFQFNMWQ [TM140] : 1

Looking up CKIKIQINMW [TM86] , I found its Zeta Count Rate Category recorded as 1

response.value for MKIKIQINMWQ [TM52] (field: Zeta Count Rate Category) = 1

Notebook: KIKIQINM [JGB2] , Zeta Count Rate Category read as 1

The reported value for KFKFQF [JJA6] in terms of Zeta Count Rate Category is 1

Recorded Zeta Count Rate Category (substance CKIKIQINM [MG2] ): 1

// recorded Zeta Count Rate Category for CHLHLQL [CN9] : 1

Form field Zeta Count Rate Category, entry QCKIKIQINMWQ [EF-C opt] : 1

For reference, reported Zeta Count Rate Category for MKFKFQF [DF5 / CK16] stands at 1

The recorded Zeta Count Rate Category for CKFKFQFNMWQ [BL2] is 1

Reported Zeta Count Rate Category ( QCKIKIQI [CK3] ) = 1

Form field Zeta Count Rate Category, entry QCKFKFQF [CK9] : 1

Record KFKFQFNMWQ [JG4] . Reported Zeta Count Rate Category: 1

====

Experiment: Turbidity, derived count rate of scattered light
Assay type: physicochemical
Settings: log10 of derived count rate of scattered light (turbidity)
Experimental: 4 µL of 1 mg/mL peptide fibrils solution is added to a 20 µL, 50 µM ThT–solution in PBS. The mixture is incubated for 15 min at RT to allow binding of ThT dye with β–sheet rich structures. […] Fluorescence spectra were recorded on an Infinite® M1000 PRO microplate reader (Tecan) at λem = 488 nm upon excitation at λex = 440 nm with 10 nm bandwidths and multiple reads per well (3×3). […] Furthermore, fluorescence microscopy was conducted by staining 1 µL preformed fibrils (1 mg/mL) with 9 µL ThT (50 µM). […]
Rule: Log10 Count Rate below 3 gives satisfied. Equal to or above 3 gives not satisfied.

# substance, label
records = [
    ("HHHHKIKIKIKIWWWW", "not satisfied"),
    ("CKIKQIIRGD", "not satisfied"),
    ("CKFKFQFW", "not satisfied"),
]

[ask] Please state whether Log10 Count Rate is below 3 for MKIKIQINMWQ
[reply] not satisfied

[ask] Dear reviewer, please state whether EIKIQINM has Log10 Count Rate strictly beneath 3.
[reply] not satisfied
